system: SETVI (Foxtail, Green); assay: Postemergence herbicidal evaluation; type: in vivo, Setaria viridis; conditions: postemergence, rate 0.0625 kg/ha
metric.name: Herbicidal rating SETVI

>>> endpoint_result("Cn1c(C(F)(F)F)cc(=O)n(-c2cc(N=C3SCC(=O)N3Cc3ccncc3)c(Cl)cc2F)c1=O")
2.0
>>> endpoint_result("Cn1c(C(F)(F)F)cc(=O)n(-c2cc(N=C3SCC(=O)N3CC(=O)OCC3CCCCC3)c(Cl)cc2F)c1=O")
9.0
>>> endpoint_result("CC(C)N1C(=O)CSC1=Nc1cc(-n2c(=O)cc(C(F)(F)F)n(C)c2=O)c(F)cc1Cl")
9.0
>>> endpoint_result("Cn1c(C(F)(F)F)cc(=O)n(-c2cc(N=C3SCC(=O)N3Cc3cccc(Cl)c3)c(Cl)cc2F)c1=O")
6.0
>>> endpoint_result("CCOC(=O)CN1C(=O)C(Br)SC1=Nc1cc(-n2c(=O)cc(C(F)(F)F)n(C)c2=O)c(F)cc1Cl (stereo not shown)")
0.0
>>> endpoint_result("Cn1c(C(F)(F)F)cc(=O)n(-c2cc(N=C3SCC(=O)N3Cc3ccc(C(F)(F)F)cc3)c(Cl)cc2F)c1=O")
0.0
>>> endpoint_result("Cn1c(C(F)(F)F)cc(=O)n(-c2cc(N=C3SCC(=O)N3C3CCCC3)c(Cl)cc2F)c1=O")
1.0

###

tested on: CYPIR (Rice Flatsedge); experiment: Preemergence weed control under flooded paddy conditions; assay type: in vivo, Cyperus iria; conditions: 0.1250 kg/ha, rated 3-4 weeks after treatment
This section presents compounds with their documented CYPIR herbicidal effect rating values.
metric.name: CYPIR herbicidal effect rating

>>> endpoint_result("CC(C)OC(=O)CC1SC(=Nc2cc(-n3c(=O)cc(C(F)(F)F)n(C)c3=O)c(F)cc2Cl)N(C)C1=O (stereo not drawn) [Compound 89]")
2.0
>>> endpoint_result("COC(=O)C(Cc1ccc(Cl)cc1)N1C(=O)CSC1=Nc1cc(-n2c(=O)cc(C(F)(F)F)n(C)c2=O)c(F)cc1Cl (racemic) [Compound 77]")
0.0
>>> endpoint_result("CC(C)C[C@@H](C(=O)O)N1C(=O)CSC1=Nc1cc(-n2c(=O)cc(C(F)(F)F)n(C)c2=O)c(F)cc1Cl [Compound 71]")
3.0
>>> endpoint_result("C=CCN1C(=O)C(CC(=O)NS(=O)(=O)c2ccccc2)SC1=Nc1cc(-n2c(=O)cc(C(F)(F)F)n(C)c2=O)c(F)cc1Cl (stereo not drawn) [Compound 101]")
0.0
>>> endpoint_result("COC(=O)C(C)OC(=O)CN1C(=O)CSC1=Nc1cc(-n2c(=O)cc(C(F)(F)F)n(C)c2=O)c(F)cc1Cl (stereo not drawn) [Compound 116]")
7.0
>>> endpoint_result("CCOC(=O)CN1C(=O)C(CC(=O)NOC)SC1=Nc1cc(-n2c(=O)cc(C(F)(F)F)n(C)c2=O)c(F)cc1Cl (stereo not drawn) [Compound 83]")
6.0

###

This section presents compounds with their documented Preemergence herbicidal rating TRZAWR values.
system: TRZAWR (Wheat, Winter, cv Riband); experiment: Preemergence herbicidal evaluation; type: in vivo, Triticum aestivum; details: rate 0.2500 kg/ha; rated 4-5 weeks after treatment
metric.name: Preemergence herbicidal rating TRZAWR

>>> endpoint_result("Cn1c(C(F)(F)F)cc(=O)n(-c2cc(N=C3SCC(=O)N3CC(=O)OC3CCCC3)c(Cl)cc2F)c1=O")
4.0
>>> endpoint_result("CCOC(=O)CN1C(=O)C(CC(=O)Nc2ccccc2)SC1=Nc1cc(-n2c(=O)cc(C(F)(F)F)n(C)c2=O)c(F)cc1Cl (centres unmarked)")
1.0
>>> endpoint_result("Cn1c(C(F)(F)F)cc(=O)n(-c2cc(N=C3NC(=O)CS3)c(Cl)cc2F)c1=O")
2.0
>>> endpoint_result("COC(=O)COC(=O)CN1C(=O)CSC1=Nc1cc(-n2c(=O)cc(C(F)(F)F)n(C)c2=O)c(F)cc1Cl")
5.0
>>> endpoint_result("COC(=O)C(C)OC(=O)CN1C(=O)CSC1=Nc1cc(-n2c(=O)cc(C(F)(F)F)n(C)c2=O)c(F)cc1Cl (centres unmarked)")
1.0
